We begin with a simple list: items and their reported growth inhibition.
method.summary: NCI Yeast Anticancer Drug Screen. Data for the rad50 strain (AID 155);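 note: 0% = growth of vehicle-only cultures of the same strain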
test.context: S. cerevisiae rad50 strain growth inhibition; at 50.0 µM; active compounds read high
This is part of a sample that, as a whole, favours compounds with a hit. Of some 79,000 tested, about 15% had one in any assay.
State the answer as a number, implicitly in %.

molecule: COc1cc(C2c3cc4c(cc3[C@@H](Nc3ccc5c(c3)OCCO5)C3COC(=O)[C@H]23)OCO4)cc(OC)c1O (stereo not given in full)
unit.tag: %
growth inhibition: 85.2

Challenge: Using the record for `COc1ccc(N=N/N=c2\sc3cc(OC)ccc3n2C)cc1` , report its growth inhibition.
Response given: 29.4

Challenge: So what does the record say about growth inhibition for `CC(C)(C)c1ccc(OC(=O)Nc2ccc(Cl)cc2[N+](=O)[O-])c(Br)c1` ?
Response given: 33

Challenge: Bench note: what growth inhibition did `COc1ccccc1OC(=O)Oc1ccccc1OC` show?
Response given: 36.6

Challenge: Need growth inhibition, item `O=[N+]([O-])c1cc(I)c(O)c(/C=N/NS(=O)(=O)c2ccc(Cl)cc2)c1`
Response given: 88.5

* * *

method.summary: NCI Yeast Anticancer Drug Screen. Data for the sgs1 mgt1 strain (AID 161);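 note: 0% = growth of cultures given vehicle only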
test.context: S. cerevisiae sgs1 mgt1 strain, at 50.0 µM (retest, dose inferred, filed as 5.0)
This is part of a sample that, as a whole, favours compounds with a hit. Of some 79,000 tested, about 15% had one in any assay. Active and inactive are the calls of the source. Rule as the data show it: active = growth inhibition above about 70%; inactive = the rest.
Can you answer with just one of these options? active, inactive

molecule: NC(=S)N/N=C1/C(=O)c2cccc3cccc1c23
class.label: active

molecule: O=C1NC(=O)N(c2ccc([N+](=O)[O-])cc2)C1=O
class.label: inactive

molecule: COc1cc2c(cc1O)C1Cc3ccc(OC)c(O)c3C(C2)N1C (stereo unspecified)
class.label: inactive

molecule: CC(C)c1ccc(S(=O)(=O)c2ccc([N+](=O)[O-])cc2[N+](=O)[O-])cc1
class.label: active

molecule: CC(=O)Nc1ccc(-c2cnc3ccccc3c2)cc1
class.label: inactive

Challenge: How did this test come out for `CCCc1cc(=O)oc2c3c(c4c(c12)OC(C)(C)C=C4)O[C@@H](C)[C@H](C)[C@H]3O` ?
Response given: active

Challenge: Test call for this molecule, please: `COC(=O)c1cc(OC)c(OC)c(OC)c1`
Response given: inactive

Challenge: Name the outcome recorded for `CN(C)c1ccc2c(c1)Cc1cc(NC(=O)/C=C/C(=O)O)ccc1-2` in the assay.
Response given: inactive

Challenge: Call for entry `O=C(NNc1ccc(F)cc1)C12CC3CC(CC(C3)C1)C2` :
Response given: active

Challenge: Give the logged outcome of this assay for the following molecule: `Nc1nc(N)c2c(ccc3c2ccn3Cc2cccc([N+](=O)[O-])c2)n1`
Response given: inactive

Challenge: What classification did `N#Cc1c(SCc2ccc(Cl)cc2)nsc1Nc1ccc(Cl)cc1` end up with in this test?
Response given: active

Challenge: Check the results log: what was the call for `CN(C)CC(C)(C)/C(=N\Nc1ccccc1)c1ccccc1` ?
Response given: active

Challenge: How was CCCCCCC(O)C(CO)CCCCC (stereo unspecified) classified in this test?
Response given: inactive

Challenge: Write down the call the test reported for this molecule. Item: `Cc1ccc2nc(-[n+]3cc4ccccc4cc3C)ccc2c1`
Response given: active

Challenge: Which outcome did this test record for the molecule `O=C(/C=C/c1cccc(Cl)c1)c1ccccc1` ?
Response given: active

Challenge: Dear all, I need the recorded test outcome for `CC(=Nc1ccc(N(C)C)cc1)c1ccccc1` , thank you.
Response given: active

Challenge: Query: recorded result category for `COc1cc(/C=C(\C#N)c2ccc([N+](=O)[O-])cc2)ccc1O` in this test
Response given: inactive

Challenge: Field: outcome | Entry: `Cc1c(C)c2cc3c(=O)ccoc3c(C)c2oc1=O`
Response given: inactive

Challenge: Entry `COc1ccc2nc3cc(Cl)ccc3c(NCCNCCCNC(=O)c3cc(-c4ccccc4)nc4ccccc34)c2c1` : call = ?
Response given: inactive

Challenge: I'd appreciate the recorded outcome for `CN(C)CC/C(=N\Nc1ccc(Cl)cc1)c1ccccc1` from this test.
Response given: active

Challenge: Lab log entry: `CCOC(=O)C(=O)Nc1ccc(Cl)cc1Cl` — outcome as called in the assay?
Response given: inactive

Challenge: Hi team, can someone confirm the assay call for CC(CCNCCC#N)CC(C)(C)C (stereo unspecified) ?
Response given: inactive

Challenge: Test call for this molecule, please: `N#C/C(=C\c1c(Cl)cccc1Cl)c1ccccc1`
Response given: inactive

* * *

method.summary: NCI Yeast Anticancer Drug Screen. Data for the bub3 strain (AID 167)
test.context: S. cerevisiae bub3 mutant strain, at 50.0 µM (retest, dose inferred, filed as 5.0), active compounds read high
Compounds without any hit were thinned out: in the full panel of roughly 79,000, 15% have a hit.
Assign yes whenever growth inhibition does not fall below 80%; assign no whenever it does.

// below: answered compounds
compound: Clc1ccc2c(NCCCCCCNc3ccnc4cc(Cl)ccc34)ccnc2c1
class.label: yes
//
compound: O=c1c(S(=O)(=O)Oc2ccccc2)coc2cc(F)ccc12
class.label: yes
//
compound: CC(C)/C(Cl)=N\OC(=O)Nc1ccc(S(N)(=O)=O)cc1
class.label: no
//
compound: O=C(O)C1C(C(=O)O)C23CC2(C(=O)O)C2(C(=O)O)CCC3=C3CCCC312 (stereo unspecified)
class.label: yes
//
compound: O=C1NOCC1N=Cc1cc(Cl)ccc1O (stereo unspecified)
class.label: no

Okay, next one:
Challenge: Test whether the compound `O=[N+]([O-])c1cccc(S(=O)(=O)N/N=C/c2cc(I)cc([N+](=O)[O-])c2O)c1` records growth inhibition of 80% or higher.
Response given: no

* * *

method.summary: NCI Yeast Anticancer Drug Screen. Data for the bub3 strain (AID 167)
test.context: S. cerevisiae bub3 mutant strain, at 50.0 µM (retest, dose inferred, filed as 5.0)
Experimental: Growth inhibition of yeast strains with defined genetic alterations is measured as a screen for potential anti-cancer activity. Selected strains with alterations in DNA damage repair or cell cycle control were exposed to compounds and growth inhibition was measured relative to vehicle treated controls. The strain used in this assay is bub3
Compounds without any hit were thinned out: in the full panel of roughly 79,000, 15% have a hit. The source made the active and inactive calls. No stated cut-off is given here; in the data, active means growth inhibition above about 70%; inactive means the rest.
Please state which outcome applies, choosing from active, inactive

molecule: C/C(=C/c1ccccc1)C(=O)C1C(c2ccccc2)CC(O)C(C)C1c1ccccc1 (centres undefined)
class.label: active
//
molecule: CSc1ncnc2ncn(C3OC(CO)C(O)C3O)c12 (centres undefined)
class.label: inactive
//
molecule: COC(=O)C12Oc3ccc(-c4ccc5c(c4O)C(O)=C4C(=O)CC(C)C(O)C4(C(=O)OC)O5)c(O)c3C(O)=C1C(=O)CC(C)C2O (centres undefined)
class.label: active

Challenge: Hi, sorry to bother you, what did the test record for `N#Cc1c(-c2ccc(Cl)cc2)c(-c2ccc(Cl)cc2)nn(CCOC(=O)CCC(=O)O)c1=O` ?
Response given: active

Challenge: What classification did COC1CCC(O)C(CO)O1 (centres undefined) end up with in this test?
Response given: active

Challenge: For `Nc1nc2nc(I)[nH]c2c(=O)[nH]1` , what call appears in the results of this test?
Response given: inactive

* * *

method.summary: NCI Yeast Anticancer Drug Screen. Data for the rad50 strain (AID 155);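 note: 0% = growth of vehicle-only cultures of the same strain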
test.context: S. cerevisiae rad50 strain growth inhibition; at 50.0 µM; active compounds read high
This is part of a sample that, as a whole, favours compounds with a hit. Of some 79,000 tested, about 15% had one in any assay.
measurement.name: growth inhibition (%)
Output spec: scalar in %, unitless text.

compound: NNC(=O)NN=C(c1ccccc1)c1ccccc1
unit.tag: %
growth inhibition: 1.5
//
compound: CCOC(=O)c1cnc(SCc2ccc(Cl)cc2Cl)nc1Cl
unit.tag: %
growth inhibition: 38.4
//
compound: Cc1cc(-c2ccccc2)nc2nc3ccccc3n12
unit.tag: %
growth inhibition: 7.95
//
compound: NC(=O)NC(CC(=O)O)C(=O)O (configuration not stated)
unit.tag: %
growth inhibition: -19.9

Challenge: State the recorded growth inhibition for this entry: `CCN(CC)CCNc1ccc2nnn3c4ccc([N+](=O)[O-])cc4c(=O)c1c23`
Response given: 66.5

Challenge: Find the recorded growth inhibition belonging to `COc1ccc(OC)c(C(Cc2ccnc3ccccc23)Cc2ccnc3ccccc23)c1` and report it.
Response given: 99

Challenge: Given the compound `C/C(=N/Nc1ccccc1)C(=O)O` , what is its reported growth inhibition?
Response given: 97.8

Challenge: growth inhibition for CC(C)C(=O)OCC(C)(C)C1OCC(C)(C)C(C(C)C)O1 (configuration not stated) ?
Response given: -5.55

Challenge: Can you look up the measured growth inhibition of `Nc1nc(-c2ccccc2)c(-c2ccccc2)c(-c2nc(N)nc(-c3ccccc3)c2-c2ccccc2)n1` for me?
Response given: -4

Challenge: Given `CN(C)/N=C(/CC(O)(C(F)(F)F)C(F)(F)F)c1ccc([N+](=O)[O-])cc1` , state its recorded growth inhibition.
Response given: -4.65

Challenge: growth inhibition lookup needed for `COc1ccc(OC)c(N=Nc2c(C)[nH]n(C(N)=S)c2=O)c1` , thanks.
Response given: 79.3

Challenge: Which growth inhibition is reported for this compound? O=C1c2ccc3ccccc3c2CN2C(=O)CCC12 (configuration not stated)
Response given: 25.2

Challenge: Query: growth inhibition; subject: `CC(C)(C)CC(C)(C)c1ccc(O)c(O)c1`
Response given: 93.3

Challenge: Reported growth inhibition for `Cn1c2ccccc2c2nnc(N/N=C/c3ccccn3)nc21` : what is it?
Response given: 94.4

Challenge: So what's the measured growth inhibition for this one? Clc1ccc(CN2CCCN(Cc3ccc(Cl)cc3)C2C2CCC=CO2)cc1 (configuration not stated)
Response given: 66.1

Challenge: // returns reported growth inhibition for input COC(=O)C12Oc3ccc(-c4ccc5c(c4O)C(O)=C4C(=O)CC(C)C(O)C4(C(=O)OC)O5)c(O)c3C(O)=C1C(=O)CC(C)C2O (configuration not stated)
Response given: 90.5

Challenge: I have this compound here, `C/C(=N\NC(=S)N1CCN(Cc2ccccc2)CC1)c1ccccn1` , and I need its recorded growth inhibition.
Response given: 90.3

Challenge: Looking for the measured growth inhibition of CCOC(=O)C(NC(=O)C(CO)n1c(-c2ccccc2)c(-c2ccccc2)oc1=O)C(=O)OCC (configuration not stated) , can you help?
Response given: 43.6

Challenge: Give the measured growth inhibition of `S=C(N/N=C/c1ccccn1)N1CCCCCC1` .
Response given: 88.8

Challenge: Please report the recorded growth inhibition for `O=C(O)[C@@H]1CCCC[C@@H]1C(=O)N(C1CCCCC1)C1CCCCC1` .
Response given: 45.1

Challenge: Give the measured growth inhibition of C/C=C(\C)C(=O)OC1C(C)C2(O)C(C=C(CO)CC3(O)C(=O)C(C)=CC32)C2C(C)(C)C12OC(=O)CCCCCCCCC (configuration not stated) .
Response given: 79

Challenge: Entry CCc1ccccc1NC(=O)C1=C(C)NC(C)=C(C(=O)Nc2c(CC)cccc2CC)C1c1ccc2c(c1)OCO2 (configuration not stated) has what growth inhibition?
Response given: 89.5

Origin of values: PubChem BioAssay (NCI)
